- PROTOCOL SUMMARY: NMR kinetic solubility
- Type: physicochemical
- CONDITION LABEL: 500 µM final compound concentration, 20 mM HEPES buffer pH 8, 2% or 5% DMSO
The entries below are paired with their reported Sol. (NMR kinetic solubility).
Just the number plus its unit, please.

Here's what some known entries look like.
N#Cc1c(NCc2ccccc2)ccnc1Cl [Compound 21] :: 72 µM
Cc1ccccc1C1CC(c2ccccc2)Nc2ncnn21 (stereo not drawn) [Compound 1] :: 71 µM

Then there is this compound:
Please give the measured Sol. (NMR kinetic solubility) for this compound: CCC1=C(C(=O)OC)C(c2ccccc2F)n2ncnc2N1 (stereo not drawn) [Compound 8]
70 µM
